- assayText: in vivo
- details: Sprague-Dawley, rat, po, 200 mg/kg
endpointName: half-life (h)
Your answer should be a plain number; it is taken to be in h.

Field half-life (entry `O=C(CC(=O)c1ccccc1)c1ccccc1` ) reads 2.91

---

- System: HCoV-OC43
- assayText: microbe, parasite or virus in culture
- Format: cell-based
- details: Betacoronavirus 1, OC43, read-out: EC50 of DBM against HCoV-OC43 passaged with DMSO
endpointName: EC50 (µM)
Express it in µM; write the number only.

The reported EC50 value, HCoV-OC43, for O=C(CC(=O)c1ccccc1)c1ccccc1 [DBM, dibenzoylmethane] reads 0.57

Sourced from paper PMC12431657
